B1: LCOR (parent)
chain: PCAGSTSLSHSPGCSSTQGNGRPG

Variants of: B1
Test: protein stability index of a GFP-peptide fusion (GPS, HEK-293T) (PSI 1-6); higher = more stable;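 further: lentivirally expressed fusions sorted by FACS into six bins by GFP to DsRed ratio, PSI derived from sequencing read proportions per bin multiplied by bin number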
Details: c terminus: a fixed tail appended
MEASUREMENT_NAME: protein stability index
Please state the value as a number alone, without comment.

// query protein stability index value for entry S9H
2.36

Param item: G13Y
2.53

Value source: the supplement of paper PMC10567573
